molecular target: bacteriophage T4 DNA polymerase (Enterobacteria phage T4, UniProt P04415); construct: made in house; assay: Counter-screen against bacteriophage T4 DNA polymerase; format: biochemical; conditions: DRC-2; read at 10'; concentration 2.5
Sequence (P04415 whole entry): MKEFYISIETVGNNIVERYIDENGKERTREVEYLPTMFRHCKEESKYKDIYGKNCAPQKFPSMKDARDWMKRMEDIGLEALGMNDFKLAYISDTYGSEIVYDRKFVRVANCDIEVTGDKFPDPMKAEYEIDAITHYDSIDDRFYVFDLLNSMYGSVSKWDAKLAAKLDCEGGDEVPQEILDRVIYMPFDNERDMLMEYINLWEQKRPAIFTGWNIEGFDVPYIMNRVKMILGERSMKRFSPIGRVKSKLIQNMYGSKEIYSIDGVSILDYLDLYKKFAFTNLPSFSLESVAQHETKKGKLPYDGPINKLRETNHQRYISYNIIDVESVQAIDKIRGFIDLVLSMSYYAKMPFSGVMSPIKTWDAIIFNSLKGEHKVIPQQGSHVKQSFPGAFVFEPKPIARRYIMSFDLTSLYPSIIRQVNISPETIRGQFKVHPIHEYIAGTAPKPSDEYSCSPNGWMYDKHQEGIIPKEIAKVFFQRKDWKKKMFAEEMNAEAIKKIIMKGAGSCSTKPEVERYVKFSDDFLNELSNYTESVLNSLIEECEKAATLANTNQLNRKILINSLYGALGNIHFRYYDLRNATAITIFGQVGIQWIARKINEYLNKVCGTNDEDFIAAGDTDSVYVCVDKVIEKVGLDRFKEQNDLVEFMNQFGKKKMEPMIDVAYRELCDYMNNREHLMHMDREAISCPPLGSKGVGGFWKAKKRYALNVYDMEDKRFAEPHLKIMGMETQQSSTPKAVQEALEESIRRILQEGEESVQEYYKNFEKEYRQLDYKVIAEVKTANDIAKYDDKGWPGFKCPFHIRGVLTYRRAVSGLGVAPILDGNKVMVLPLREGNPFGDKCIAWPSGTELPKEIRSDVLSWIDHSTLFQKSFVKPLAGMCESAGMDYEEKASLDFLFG
Recorded % inhibition T4 10' 2.5 by entry
endpoint label: % inhibition T4 10' 2.5 (%)

compound: Cc1cc2[nH]c(C(=O)Nc3ccc(F)cc3)c(CN3CCOCC3)c2s1
value unit: %
measurement: 5.28
--
compound: COc1ccc(C2CC(c3ccc(Cl)cc3Cl)Nc3nc(N)nn32)cc1OC (centres unmarked)
value unit: %
measurement: 3.49
--
compound: CC(=O)OCC1=C(C(=O)[O-])N2C(=O)[C@@H](NC(=O)Cc3cccs3)[C@H]2SC1.[Na+]
value unit: %
measurement: 0.14
--
compound: Cc1ccsc1Cn1c(C)ccc1C
value unit: %
measurement: -7
--
compound: COc1ccc(/C=C/c2cc(C(=O)O)c3ccccc3n2)cc1
value unit: %
measurement: 4.49
--
compound: O=C(c1ccccc1)N1CCc2c(nc3cc(-c4ccccc4)[nH]n3c2=O)C1
value unit: %
measurement: 1.68
--
compound: Nc1cc(Oc2ccc(O)c(N)c2)ccc1O
value unit: %
measurement: -8.57
--
compound: Cn1nc(-c2nc(-c3ccccc3)no2)c2c1CCN(C(=O)Cc1cccs1)C2
value unit: %
measurement: 2.64
